System: RPMI-8226
Test: NCI tumour cell line growth inhibition, 48 h
The source made the active and inactive calls. Cut-off read from the data, not from the text of the source: active = GI50 up to about 1.1 µM and inactive = higher.
Possible outcomes: active, inactive

{"Molecule": "CC(=O)/C(=C(/Br)I)c1ccccc1", "Label Value": "inactive"}
{"Molecule": "COC(=O)CSc1cc(Cl)c(C)cc1S(=O)(=O)Nc1n[nH]c(N)n1", "Label Value": "inactive"}
{"Molecule": "CCN1CCC(O)(/C=C/c2ccc(C)cc2)C(C(=O)/C=C/c2ccc(C)cc2)C1 (stereo unspecified)", "Label Value": "inactive"}
{"Molecule": "CC(=C(C(=O)O)C(=O)O)c1cc(-c2cccs2)cc(-c2ccc(Cl)cc2)c1O", "Label Value": "inactive"}
{"Molecule": "Cc1nc(N/N=C/c2ccccc2Cl)[nH]c(=O)c1CCO", "Label Value": "inactive"}
{"Molecule": "CC(=O)N/C(=C\\c1ccc(Cc2nc3c([nH]2)C(=O)c2ccccc2C3=O)cc1)c1nc2c([nH]1)C(=O)c1ccccc1C2=O", "Label Value": "inactive"}
{"Molecule": "Cc1cn(C2CC(n3cc(Cn4cc(F)c(=O)[nH]c4=O)nn3)C(CO)O2)c(=O)[nH]c1=O (stereo unspecified)", "Label Value": "inactive"}
{"Molecule": "COCc1nc(N)nc(N2N=C(C)CC2(C)C)n1", "Label Value": "inactive"}
{"Molecule": "CS(=O)(=O)CC(=O)c1ccccc1", "Label Value": "inactive"}
{"Molecule": "COc1cc(C(=O)NC2CCc3cc(OC)c(OC)c(OC)c3-c3ccc(OC)c(=O)cc32)cc(OC)c1OC (stereo unspecified)", "Label Value": "active"}
{"Molecule": "COc1cc2c[n+](C)c3c4ccccc4ccc3c2cc1OC.COc1cc2cnc3c4ccccc4ccc3c2cc1OC", "Label Value": "inactive"}
{"Molecule": "CCCCSc1n/c(=C\\c2ccc(N(C)C)cc2)c2nnnn12", "Label Value": "inactive"}
{"Molecule": "CCN(CC)CCC/N=c1\\c2cc(OC)ccc2[nH]c2c([N+](=O)[O-])ccc(NCCCN(CC)CC)c12", "Label Value": "inactive"}
{"Molecule": "COc1ccc(/C=C2\\N=C3NC(=O)C(N4CCCCC4)=C(N)N3C2=O)cc1", "Label Value": "inactive"}
{"Molecule": "CCN(CC)CC(C(=O)Nc1c(C)cccc1C)/C(C)=N/NC(N)=S (stereo unspecified)", "Label Value": "inactive"}
{"Molecule": "CC(C)(C)NCC(O)c1ccc(O)c(CO)n1 (stereo unspecified)", "Label Value": "inactive"}
{"Molecule": "COC(C)(C)C(O)C(O)C[C@H](C)C1CC=C2C1(C)CCC1[C@@]3(C)CCC(OC(C)=O)C(C)(C)C3CC(OC3OC(COC(C)=O)C(O)C(O)C3O)[C@@]21C (stereo partly specified)", "Label Value": "inactive"}
{"Molecule": "CCCCC1(N=[N+]=[N-])C(=O)c2cccc3c2N(CCC3)C1=O (stereo unspecified)", "Label Value": "inactive"}
{"Molecule": "O=C1C(CO)=C(CO)C(=O)c2c(O)ccc(O)c21", "Label Value": "active"}
{"Molecule": "O=c1ncccn1[C@@H]1O[C@H](CO)[C@H](O)C1O (stereo partly specified)", "Label Value": "inactive"}
{"Molecule": "CC(C(=O)n1c2ccccc2c2ccccc21)N(c1ccccc1)c1ccccc1 (stereo unspecified)", "Label Value": "inactive"}
